- target_or_test_system: kinase enzymes (Homo sapiens)
Property: Kd; scope: individual compounds

                                   compound  recorded_endpoint  observed_result
0  CN(C)C(=O)c1cc(N2CCC2c2ccc(F)cc2)c2nc(N3CCOCC3)cnc2c1 (single isomer, unassigned) [Compound 397b]                 Kd        > 30.2 µM
1  Cc1c(F)cccc1CN(C)c1cc(C(=O)N(C)CCNC(C)C)cc2ncc(N3CCOCC3)nc12                 Kd          24.5 µM
2  CCOC(=O)CNC(=O)c1cc(C(C)Nc2cccc(F)c2)c2nc(N3CCOCC3)cnc2c1 (stereo not shown) [Compound 392a]                 Kd          20.4 µM
3  CNCCNC(=O)c1cc(C(C)Nc2cc(F)cc(F)c2)c2nc(N3CCOCC3)cnc2c1 (single isomer, unassigned) [Compound 406a]                 Kd          22.9 µM
4  Cc1c(F)cccc1CN(C)c1cc(C(=O)N2CCNC(C(F)(F)F)C2)cc2ncc(N3CCOCC3)nc12 (single isomer, unassigned) [Compound 367a]                 Kd          29.5 µM
5  CC(Oc1ccc(F)c(F)c1)c1cc(C(=O)N2CC[C@@H](N(C)C)C2)cc2ncc(N3CCOCC3)nc12 (single isomer, unassigned) [Compound 298b]                 Kd        > 30.2 µM
6  CC(C)NCCNC(=O)c1cc(C(C)Oc2ccc(F)c(F)c2)c2nc(N3CCOCC3)cnc2c1 (single isomer, unassigned) [Compound 286b]                 Kd        > 30.2 µM
7  CC(Nc1cc(F)cc(F)c1)c1cc(CO)cc2ncc(N3CCOCC3)nc12 (single isomer, unassigned) [Compound 154a]                 Kd          8.51 µM
8  CC(C)NCc1cc(F)cc(N2CCCC2c2cc(C(=O)N(C)C)cc3ncc(N4CCOCC4)nc23)c1 (stereo not shown)                 Kd        > 30.2 µM
9  CC(C)NCCNC(=O)c1cc(C(C)Nc2ccc(F)c(F)c2)c2nc(N3CCOCC3)cnc2c1 (single isomer, unassigned) [Compound 364a]                 Kd        > 30.2 µM

Asked: Query the reported Kd for kinase enzymes (Homo sapiens); item: COC(=O)c1cc(C(C)Nc2cccc(F)c2)c2nc(N3CCOCC3)cnc2c1 (single isomer, unassigned) [Compound 262b]
Given back: > 30.2 µM

Asked: Query the reported Kd for kinase enzymes (Homo sapiens); item: OC1CN(Cc2cc(C3CCCN3c3cc(F)cc(F)c3)c3nc(N4CCOCC4)cnc3c2)C1 (stereo not shown)
Given back: > 30.2 µM

Asked: Query the reported Kd for kinase enzymes (Homo sapiens); item: CCN1CCN(C(=O)c2cc(C(C)Nc3cccc(F)c3)c3nc(N4CCOCC4)cnc3c2)CC1 (single isomer, unassigned)
Given back: > 30.2 µM

----------
- target_or_test_system: kinase enzymes (Homo sapiens)
pKd: −log10 of the molar value.
recorded_endpoint: pKd

Example entries and their recorded answers appear below.
>>> print(df.to_string())
                                   compound  observed_result
0  CC(Sc1ccccc1)c1cc(C(=O)N(C)C)cc2ncc(N3CCOCC3)nc12 (stereo not shown) [Compound 135]             5.00
1  CC(Nc1ccc(F)c(F)c1)c1cc(C(=O)NCCO)cc2ncc(N3CCOCC3)nc12 (single isomer, unassigned) [Compound 279a]             5.66
2  CC(Nc1cc(F)cc(F)c1)c1cc(C(=O)NS(N)(=O)=O)cc2ncc(N3CCOCC3)nc12 (single isomer, unassigned) [Compound 243a]             7.41
3  CC(C)NCCNC(=O)c1cc(C(C)Oc2cccc(F)c2)c2nc(N3CCOCC3)cnc2c1 (single isomer, unassigned) [Compound 314a]             4.76
4  CC(Nc1cc(F)cc(F)c1)c1cc(C(=O)N2CCOCC2)cc2ncc(N3CCOCC3)nc12 (single isomer, unassigned) [Compound 9]             4.56

a. Cc1ccc(NC(C)c2cc(C(=O)NCCN(C)C)cc3ncc(N4CCOCC4)nc23)cc1F (single isomer, unassigned) [Compound 407b]
b. CC(Nc1cc(F)cc(F)c1)c1cc(C(=O)N2CCN(CC(F)(F)F)CC2)cc2ncc(N3CCOCC3)nc12 (stereo not shown) [Compound 171]
c. CC(Nc1ccc(F)c(F)c1)c1cc(C(=O)N2CCN3CCC[C@H]3C2)cc2ncc(N3CCOCC3)nc12 (single isomer, unassigned) [Compound 287b]
Asked: Let's sort these by pKd, smallest first. Go ahead? Returns: the labels listed in the requested order.
Given back: c, a, b
(c: 5.03, a: 5.36, b: 5.66)

I. CN(C)C(=O)c1cc(N2CCC2c2ccc(F)cc2)c2nc(N3CCOCC3)cnc2c1 (single isomer, unassigned) [Compound 397a]
II. CNCCNC(=O)c1cc(C(C)Oc2ccc(F)c(F)c2)c2nc(N3CCOCC3)cnc2c1 (single isomer, unassigned) [Compound 344b]
Asked: Which numeric pKd is bigger, that of I or that of II ? Please indicate the selected item by its label.
Given back: I
(I: 5.44, II: 5.09)
